system: Agrobacterium tumefaciens; experiment: Inhibition zone assay (agar plate); assay type: cell-based; conditions: agar plate, 50 nanomoles/well, 3 mm wells
Residues, ends and D or L forms follow the SMILES beside them.
property: inhibition zone diameter (number of plus signs)

CC[C@H](C)[C@H](NC(=O)[C@@H]1CCCN1C(=O)[C@H](C)NC(=O)[C@@H]1CCCN1C(=O)[C@H](CCCNC(=N)N)NC(=O)[C@@H]1CCCN1C(=O)[C@H](CCCCN)NC(=O)[C@@H](N)CC(N)=O)C(=O)N[C@@H](CCCCN)C(=O)N1CCC[C@H]1C(=O)N[C@@H](CCCNC(=N)N)C(=O)N1CCC[C@H]1C(=O)N1CCC[C@H]1C(=O)N[C@@H](Cc1c[nH]cn1)C(=O)N1CCC[C@H]1C(=O)N[C@@H](CCCNC(=N)N)C(=O)N[C@@H](CC(C)C)C(=O)O [Cd 2-] (H-NKPRPAPIKPRPPHPRL-OH) = ++++ ((++++) 15-19 mm)
CC[C@H](C)[C@H](NC(=O)[C@H](Cc1ccc(O)cc1)NC(=O)[C@@H](NC(=O)[C@@H]1CCCN1C(=O)[C@H](CCCNC(=N)N)NC(=O)[C@@H](N)CC(N)=O)C(C)C)C(=O)N1CCC[C@H]1C(=O)N1CCC[C@H]1C(=O)N1CCC[C@H]1C(=O)N[C@@H](CCCNC(=N)N)C(=O)N1CCC[C@H]1C(=O)N1CCC[C@H]1C(=O)N[C@@H](Cc1c[nH]cn1)C(=O)N1CCC[C@H]1C(=O)N[C@@H](CCCNC(=N)N)C(=O)N[C@@H](CC(C)C)C(=O)O [Bb-A] (H-NRPVYIPPPRPPHPRL-OH) = ++++ ((++++) 15-19 mm)
CC[C@H](C)[C@H](NC(=O)[C@@H]1CCCN1C(=O)[C@H](C)NC(=O)[C@@H]1CCCN1C(=O)[C@H](CCCNC(=N)N)NC(=O)[C@@H]1CCCN1C(=O)[C@H](CCCCN)NC(=O)[C@@H](N)CO)C(=O)N[C@@H](CCCCN)C(=O)N1CCC[C@H]1C(=O)N[C@@H](CCCNC(=N)N)C(=O)N1CCC[C@H]1C(=O)N1CCC[C@H]1C(=O)N[C@@H](Cc1c[nH]cn1)C(=O)N1CCC[C@H]1C(=O)N[C@@H](CCCNC(=N)N)C(=O)N[C@@H](CC(C)C)C(=O)O [Cd 3-] (H-SKPRPAPIKPRPPHPRL-OH) = ++ ((++) 7-9 mm)
CC(C)C[C@H](NC(=O)[C@H](CCCNC(=N)N)NC(=O)[C@@H]1CCCN1C(=O)[C@H](Cc1c[nH]cn1)NC(=O)[C@@H]1CCCN1C(=O)[C@@H]1CCCN1C(=O)[C@H](CCCNC(=N)N)NC(=O)[C@@H]1CCCN1C(=O)[C@@H]1CCCN1C(=O)[C@@H](NC(=O)[C@H](CCC(N)=O)NC(=O)[C@H](CCC(N)=O)NC(=O)[C@@H]1CCCN1C(=O)[C@H](CCCNC(=N)N)NC(=O)[C@@H]1CCCN1C(=O)[C@H](CCCCN)NC(=O)CN)C(C)C)C(=O)O [Ho +, G K P R P Q Q V P P R P P H P R L] (H-GKPRPQQVPPRPPHPRL-OH) = ++ ((++) 7-9 mm)
